test system: Male Swiss albino mice; test: plasma triglyceride lowering in Swiss albino mice; assay type: in vivo; details: 3 mg/kg orally for 6 days, plasma triglycerides
Label key: Y means % reduction in TG under 70%; N means % reduction in TG of 70% or more.

>>> df
                                   compound  classlabel
0  CCC(C)(Oc1ccc(OCCCc2cc(-c3ccccc3)no2)cc1)C(=O)O (stereo not shown)           N
1  CCC(C)(Oc1ccc(OCc2cc(-c3ccc(OS(C)(=O)=O)cc3)no2)cc1)C(=O)O (stereo not shown)           N
2  CCC(C)(Oc1ccc(OCc2cc(-c3ccccc3)no2)cc1)C(=O)O (stereo not shown)           Y
3  CC(C)(Oc1ccc(CCCc2cc(-c3ccccc3)no2)cc1)C(=O)O           Y
4  O=C(O)C1(Cc2ccc(OCc3cc(-c4ccccc4)no3)cc2)CCCO1 (stereo not shown)           Y
5  CCC(C)(Oc1ccc(OCc2cc(-c3ccc(C(F)(F)F)cc3)no2)cc1)C(=O)O (stereo not shown)           Y

----------
// reported PPARα luciferase fold activation relative to untreated cells for each item listed
Biological target: human PPARα (Homo sapiens)
Construct: expressed in transfected cells; host or cells: HEK-293
Sequence (Q07869 239-466 limits assumed): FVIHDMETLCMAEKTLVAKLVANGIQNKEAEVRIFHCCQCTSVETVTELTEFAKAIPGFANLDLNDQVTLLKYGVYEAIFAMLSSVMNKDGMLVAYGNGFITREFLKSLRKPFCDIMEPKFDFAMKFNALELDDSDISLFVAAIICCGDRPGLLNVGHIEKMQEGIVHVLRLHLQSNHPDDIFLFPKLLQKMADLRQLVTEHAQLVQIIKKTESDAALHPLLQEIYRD
Assay: in vitro PPARα transactivation (GAL4-LBD luciferase reporter in HEK-293 cells)
Type: cell-based
Conditions: 10 μM
resultType: PPARα luciferase fold activation relative to untreated cells

                                   molecule  observedresult
0  CC[C@@](C)(Oc1ccc(OCc2cc(-c3ccc(OS(C)(=O)=O)cc3)no2)cc1)C(=O)O [Example 26]             5.7
1  CCC(C)(Oc1ccc(OCc2cc(-c3ccc(C(F)(F)F)cc3)no2)cc1)C(=O)O (centres unmarked) [Example 11]             4.0
2  O=C(O)C1(Cc2ccc(OCc3cc(-c4ccccc4)no3)cc2)CCCO1 (centres unmarked) [Example 39]             3.9
3  CCC(C)(Oc1ccc(OCc2cc(-c3ccc(OS(C)(=O)=O)cc3)no2)cc1)C(=O)O (centres unmarked) [Example 5]             3.8
4  CC(C)(Oc1ccc(CCCc2cc(-c3ccccc3)no2)cc1)C(=O)O [Example 28]             4.8

----------
biological target: human PPARα (Homo sapiens); construct: expressed in transfected cells; host or cells: HEK-293; assay: in vitro PPARα transactivation (GAL4-LBD luciferase reporter in HEK-293 cells); format: cell-based; settings: 50 μM
resultType: PPARα luciferase fold activation relative to untreated cells

>>> df
                                   molecule  observedresult
0  CCC(C)(Oc1ccc(OCc2cc(-c3ccc(C(F)(F)F)cc3)no2)cc1)C(=O)O (centres unmarked)             4.0
1  CCOC(=O)C1(Oc2ccc(OCc3cc(-c4ccccc4)no3)cc2)CCCC1             1.0
2  CCC(C)(Oc1ccc(OCc2cc(-c3ccc(OS(C)(=O)=O)cc3)no2)cc1)C(=O)O (centres unmarked)             6.0
3  CCC(C)(Oc1ccc(OCCCc2cc(-c3ccccc3)no2)cc1)C(=O)O (centres unmarked)             5.1
4  O=C(O)C1(Cc2ccc(OCc3cc(-c4ccccc4)no3)cc2)CCCO1 (centres unmarked)             4.7
